assay: Blood levels of the clavulanate after oral dosing in mice, determined by β-lactamase inhibition assay; format: in vivo; conditions: mouse, blood, mice, clavulanic acid alone at 20 mg/kg, 30' after administration, mean results from several experiments, read-out: Blood levels of clavulanic acid
TEST_READOUT: concentration at 0.5 h (ng/mL)
Quick reminder: number only, in ng/mL, skip the unit.

Entry `O=C(O)[C@H]1/C(=C/CO)O[C@@H]2CC(=O)N21` ; concentration at 0.5 h = 2300

----------
assay: Blood levels of benzyl penicillin after oral dosing in mice, determined by antibacterial assay; conditions: mouse, in vivo, 60 mg/kg
TEST_READOUT: concentration at 0.5 h (ng/mL)
Quick reminder: number only, in ng/mL, skip the unit.

Entry CC1(C)S[C@@H]2[C@H](NC(=O)Cc3ccccc3)C(=O)N2[C@H]1C(=O)O [benzyl penicillin] ; concentration at 0.5 h = 1050

----------
assay: Blood levels of benzyl penicillin after oral dosing in mice, determined by antibacterial assay; details: mouse, in vivo, 60 mg/kg
TEST_READOUT: concentration at 1.5 h (ng/mL)
Quick reminder: number only, in ng/mL, skip the unit.

Entry `CC1(C)S[C@@H]2[C@H](NC(=O)Cc3ccccc3)C(=O)N2[C@H]1C(=O)O` ; concentration at 1.5 h = 550

----------
assay: Blood levels of benzyl penicillin after oral dosing in mice, determined by antibacterial assay; conditions: mouse, in vivo, 60 mg/kg
TEST_READOUT: concentration at 0.25 h (ng/mL)
Quick reminder: number only, in ng/mL, skip the unit.

Entry CC1(C)S[C@@H]2[C@H](NC(=O)Cc3ccccc3)C(=O)N2[C@H]1C(=O)O [benzyl penicillin] ; concentration at 0.25 h = 1390

----------
assay: Blood levels of benzyl penicillin after oral dosing in mice, determined by antibacterial assay; conditions: mouse, in vivo, 60 mg/kg
TEST_READOUT: concentration at 0.75 h (ng/mL)
Quick reminder: number only, in ng/mL, skip the unit.

Entry CC1(C)S[C@@H]2[C@H](NC(=O)Cc3ccccc3)C(=O)N2[C@H]1C(=O)O [benzyl penicillin] ; concentration at 0.75 h = 1250

----------
assay: Blood levels of the clavulanate after oral dosing in mice, determined by β-lactamase inhibition assay; assay type: in vivo; conditions: mouse, blood, mice, clavulanic acid alone at 20 mg/kg, 90' after administration, mean results from several experiments
TEST_READOUT: concentration at 1.5 h (ng/mL)
Quick reminder: number only, in ng/mL, skip the unit.

Entry `O=C(O)[C@H]1/C(=C/CO)O[C@@H]2CC(=O)N21` ; concentration at 1.5 h = 340
